Molecular target: PfCRT^3D7 (Plasmodium falciparum)
Sequence (Q8IBZ9 59-398): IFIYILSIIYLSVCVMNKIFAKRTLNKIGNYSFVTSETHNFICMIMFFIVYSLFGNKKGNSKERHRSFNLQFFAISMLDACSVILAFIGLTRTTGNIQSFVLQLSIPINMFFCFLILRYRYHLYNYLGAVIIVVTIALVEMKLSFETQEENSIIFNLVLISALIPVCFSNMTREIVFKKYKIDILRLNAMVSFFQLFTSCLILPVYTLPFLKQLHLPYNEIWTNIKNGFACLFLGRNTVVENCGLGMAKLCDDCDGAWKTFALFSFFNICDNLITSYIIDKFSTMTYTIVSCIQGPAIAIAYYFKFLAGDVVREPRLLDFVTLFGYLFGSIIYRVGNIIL
Experiment: cell-based
Assay type: cell-based
Conditions: PfCRT3D7 oocytes; [test solute] = 0.5 mM; total [3H]CQ transport, normalised to the oocyte type control; read-out: Uptake of [3H]CQ (% PfCRT3D7 control), cis-inhibition
Method: The orientation of PfCRT in the parasite’s DV membrane, and also in the oocyte plasma membrane, is such that its N- and C-termini extend into the cytosol. The oocytes were suspended in a reaction buffer adjusted to pH 5.5 to mimic the pH of the DV lumen[1],[2]. […] Unless specified otherwise, this is the direction in which substrate transport was measured in the oocyte assays. […]
readout: inhibition at 500 µM (%)
Response body: numeric value in %, unit text excluded.

# returns recorded inhibition at 500 µM (system: PfCRT^3D7 (Plasmodium falciparum)) for N[C@@H](Cc1c[nH]cn1)C(=O)O
99

Observed inhibition at 500 µM on PfCRT^3D7 (Plasmodium falciparum) for C[C@@H](O)[C@H](N)C(=O)O , please.
100

More entries:
Write down the reported inhibition at 500 µM of NC(=O)CC[C@H](N)C(=O)O , test system: PfCRT^3D7 (Plasmodium falciparum).
101

So what inhibition at 500 µM did CC(C)[C@H](N)C(=O)O get with PfCRT^3D7 (Plasmodium falciparum)?
99

Give PfCRT^3D7 (Plasmodium falciparum) inhibition at 500 µM for NCCCC[C@H](N)C(=O)O
100

---

Target: PfCRT^Ecu1110 (Plasmodium falciparum, UniProt Q9N623, A220S/I356L/K76T/N326D)
Test: [3H]CQ uptake into Xenopus oocytes, cis-inhibition by unlabelled solute
Format: cell-based
Conditions: [test solute] = 1 mM; PfCRTEcu1110 oocytes; background [3H]CQ accumulation subtracted; normalised to oocyte type control
Overview of reported PfCRT-mediated [3H]CQ transport, cis-inhibition (% PfCRTEcu1110 control) across a group of sequences:
Write the value in % PfCRTEcu1110 control as a bare number.

Past entries and their recorded results:
// lookup PfCRT-mediated [3H]CQ transport, cis-inhibition (% PfCRTEcu1110 control) for KEFTPPVQA [KA-9]
41

Entry under review: AEALERMF [AF-8] . Reported PfCRT-mediated [3H]CQ transport, cis-inhibition (% PfCRTEcu1110 control)?
41

Would you kindly share the measured PfCRT-mediated [3H]CQ transport, cis-inhibition (% PfCRTEcu1110 control) for HVDDMPNA [HA-8] ?
40

Next sequence, please.
PfCRT-mediated [3H]CQ transport, cis-inhibition (% PfCRTEcu1110 control) lookup needed for DLDDALDK [DK-8] , thanks.
39

---

Target: PfNT1 (Plasmodium falciparum, UniProt Q8IDM6)
Construct: expressed in transfected cells; host or cells: Xenopus laevis oocytes (stage V-VI), cRNA-injected
Sequence (Q8IDM6 whole entry): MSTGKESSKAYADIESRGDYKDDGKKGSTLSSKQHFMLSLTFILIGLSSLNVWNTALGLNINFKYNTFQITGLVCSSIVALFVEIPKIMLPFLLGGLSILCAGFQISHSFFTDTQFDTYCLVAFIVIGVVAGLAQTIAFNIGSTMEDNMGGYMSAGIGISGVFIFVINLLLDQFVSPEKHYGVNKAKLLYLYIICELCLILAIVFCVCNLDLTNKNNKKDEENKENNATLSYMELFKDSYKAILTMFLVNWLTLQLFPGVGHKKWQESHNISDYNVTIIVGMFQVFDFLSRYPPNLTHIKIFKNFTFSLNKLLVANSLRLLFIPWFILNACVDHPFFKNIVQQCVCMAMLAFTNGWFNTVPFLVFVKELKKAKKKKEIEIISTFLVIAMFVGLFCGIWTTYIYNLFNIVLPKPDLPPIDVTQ
Assay: cell-based
Type: cell-based
Conditions: PfNT1 oocytes; footnote b: highest intracellular concentration tested was 30 mM (solubility); normalised to the oocyte type control (control = 100)
Protocol: Unless specified otherwise, the transport assays were conducted over 1.5 h at 27.5 °C and the reaction buffer was ND96 (96 mM NaCl, 2 mM KCl, 1 mM MgCl2, 1.8 mM CaCl2, 10 mM MES and 10 mM Tris-base) at pH 5.5. The intracellular concentrations were calculated using previous estimates of the volume of stage V–VI oocytes (~400 nL[60]). […] The oocytes were injected with VF-6 suspended in 25 nL ND96 buffer adjusted to pH 5.0, 5.5, 6.0 or 7.0, which corresponded to the injection of 2.5–250 fmol of H^+. […]
readout: Trans-stimulation data: total [3H]CQ transport
A bare number is not enough; add the unit after it.

Here is how some sequences turned out for Trans-stimulation data: total [3H]CQ transport.
Using the record for LTPEEKSAVTALWGKVNVDEVGGEA [LA-25, additional peptide, 25 residues] , report its Trans-stimulation data: total [3H]CQ transport.
101 ± 4.1b

I have this sequence here, DDEGDDDPVPLPNVNA [DA-16, additional peptide, 16 residues] , and I need its recorded Trans-stimulation data: total [3H]CQ transport.
99 ± 2.4b

Endpoint output: Trans-stimulation data: total [3H]CQ transport of FESFGDLSTPDAVMGNPKVK [FK-20, additional peptide, 20 residues] . Value?
100 ± 4.2b

Below: the item to evaluate.
For the sequence shown here, GTFATLSELHCDK [GK-13] , give the reported Trans-stimulation data: total [3H]CQ transport.
99 ± 2.7b

---

Listing: inhibition at 1000 µM of selected compounds
Molecular target: PfCRT^Ecu1110 (Plasmodium falciparum, UniProt Q9N623, A220S/I356L/K76T/N326D)
Assay: [3H]CQ uptake into Xenopus oocytes, cis-inhibition by unlabelled solute
Assay type: cell-based
Details: read-out: Uptake of [3H]CQ (% PfCRTDd2 control), cis-inhibition, PfCRTEcu1110; SEM

Reference set (6 entries):
Find the measured inhibition at 1000 µM: item NCCCC[C@H](N)C(=O)O , target or system PfCRT^Ecu1110 (Plasmodium falciparum, UniProt Q9N623, A220S/I356L/K76T/N326D).
32%

Return inhibition at 1000 µM measured with PfCRT^Ecu1110 (Plasmodium falciparum, UniProt Q9N623, A220S/I356L/K76T/N326D) given this compound: N[C@@H](CO)C(=O)O
32%

Value wanted: inhibition at 1000 µM (PfCRT^Ecu1110 (Plasmodium falciparum, UniProt Q9N623, A220S/I356L/K76T/N326D)) of entry C[C@H](N)C(=O)O
32%

PfCRT^Ecu1110 (Plasmodium falciparum, UniProt Q9N623, A220S/I356L/K76T/N326D) / inhibition at 1000 µM / O=C(O)[C@@H]1CCCN1 : value?
31%

Provide the documented inhibition at 1000 µM with PfCRT^Ecu1110 (Plasmodium falciparum, UniProt Q9N623, A220S/I356L/K76T/N326D) as the system for CC(C)C[C@H](N)C(=O)O
32%

Request: inhibition at 1000 µM, test system PfCRT^Ecu1110 (Plasmodium falciparum, UniProt Q9N623, A220S/I356L/K76T/N326D), entry N[C@@H](CS)C(=O)O
29%

More entries:
Hello, I am looking for reported inhibition at 1000 µM with PfCRT^Ecu1110 (Plasmodium falciparum, UniProt Q9N623, A220S/I356L/K76T/N326D) for CSCC[C@H](N)C(=O)O . Could you help?
32%

Kindly state the measured inhibition at 1000 µM obtained for C[C@@H](O)[C@H](N)C(=O)O with PfCRT^Ecu1110 (Plasmodium falciparum, UniProt Q9N623, A220S/I356L/K76T/N326D).
32%

Notebook entry, PfCRT^Ecu1110 (Plasmodium falciparum, UniProt Q9N623, A220S/I356L/K76T/N326D) assay: inhibition at 1000 µM of N[C@@H](Cc1c[nH]cn1)C(=O)O = ?
31%

PfCRT^Ecu1110 (Plasmodium falciparum, UniProt Q9N623, A220S/I356L/K76T/N326D) / inhibition at 1000 µM / N[C@@H](Cc1ccc(O)cc1)C(=O)O : value?
32%

# value lookup — system PfCRT^Ecu1110 (Plasmodium falciparum, UniProt Q9N623, A220S/I356L/K76T/N326D), readout inhibition at 1000 µM, item N[C@@H](CCC(=O)O)C(=O)O
31%

Any idea what inhibition at 1000 µM came out for NC(=O)CC[C@H](N)C(=O)O on PfCRT^Ecu1110 (Plasmodium falciparum, UniProt Q9N623, A220S/I356L/K76T/N326D)?
32%

Item N=C(N)NCCC[C@H](N)C(=O)O with PfCRT^Ecu1110 (Plasmodium falciparum, UniProt Q9N623, A220S/I356L/K76T/N326D) - inhibition at 1000 µM?
32%

---

Molecular target: PfCRT^Dd2 (Plasmodium falciparum, UniProt Q9N623, A220S/I356T/K76T/M74I/N326S/N75E/Q271E/R371I)
Sequence (Q9N623 whole entry A220S/I356T/K76T/M74I/N326S/N75E/Q271E/R371I): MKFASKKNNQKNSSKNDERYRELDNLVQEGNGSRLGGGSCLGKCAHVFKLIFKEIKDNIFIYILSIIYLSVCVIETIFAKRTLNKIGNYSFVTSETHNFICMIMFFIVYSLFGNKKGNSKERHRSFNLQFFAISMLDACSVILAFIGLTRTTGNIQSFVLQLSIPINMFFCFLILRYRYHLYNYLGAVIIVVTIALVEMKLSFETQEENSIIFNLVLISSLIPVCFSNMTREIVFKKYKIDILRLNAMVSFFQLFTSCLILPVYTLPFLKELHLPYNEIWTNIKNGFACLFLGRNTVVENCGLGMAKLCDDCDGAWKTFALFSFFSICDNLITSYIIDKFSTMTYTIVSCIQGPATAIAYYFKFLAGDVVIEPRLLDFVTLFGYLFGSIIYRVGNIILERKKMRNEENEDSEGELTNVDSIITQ
Assay: cell-based
Assay type: cell-based
Conditions: [test solute]i = 5 mM (intracellular); PfCRTDd2 oocytes; normalised to oocyte type control
readout: PfCRT-mediated [3H]CQ transport, trans-stimulation (% PfCRTDd2 control)
Please state the figure in % PfCRTDd2 control; there is no need to write the unit.

Query: PfCRT-mediated [3H]CQ transport, trans-stimulation (% PfCRTDd2 control); subject: FPHFDLS [FS-7]
95

Request the reported PfCRT-mediated [3H]CQ transport, trans-stimulation (% PfCRTDd2 control) associated with DLHAHKLR [DR-8]
100

Which measured PfCRT-mediated [3H]CQ transport, trans-stimulation (% PfCRTDd2 control) value corresponds to VDEVGG [VG-6] ?
102

Others:
Fill blank: measured PfCRT-mediated [3H]CQ transport, trans-stimulation (% PfCRTDd2 control) of the substance LSFPTTK [LK-7] is ____.
98

Report PfCRT-mediated [3H]CQ transport, trans-stimulation (% PfCRTDd2 control) for VHLTPEEK [VK-8] please.
100

If you can, please state the reported PfCRT-mediated [3H]CQ transport, trans-stimulation (% PfCRTDd2 control) value of PHFDLS [PS-6] .
96

Record request: PfCRT-mediated [3H]CQ transport, trans-stimulation (% PfCRTDd2 control) value, item YFPHFDLS [YS-8]
98

Any idea what its PfCRT-mediated [3H]CQ transport, trans-stimulation (% PfCRTDd2 control) is? The substance is HVDDMPN [HN-7]
100

I would be grateful if you could share the reported PfCRT-mediated [3H]CQ transport, trans-stimulation (% PfCRTDd2 control) for KEFTPPVQA [KA-9] .
98

Fill in: PfCRT-mediated [3H]CQ transport, trans-stimulation (% PfCRTDd2 control) of HVDPENFRL [HL-9] is ___
97

Entry VVYPWTQR [VR-8] has what PfCRT-mediated [3H]CQ transport, trans-stimulation (% PfCRTDd2 control)?
96

Origin of the recorded values: paper PMC7413254
